Source: patent US12502376B2

- system.name: purified Z-AAT protein from human plasma (Homo sapiens, UniProt P01009, E366K/V237A)
- Construct: Purified Z-AAT protein from human plasma; Vertex Cambridge Sample 4942)
- Sequence (P01009 25-418 V237A/E366K): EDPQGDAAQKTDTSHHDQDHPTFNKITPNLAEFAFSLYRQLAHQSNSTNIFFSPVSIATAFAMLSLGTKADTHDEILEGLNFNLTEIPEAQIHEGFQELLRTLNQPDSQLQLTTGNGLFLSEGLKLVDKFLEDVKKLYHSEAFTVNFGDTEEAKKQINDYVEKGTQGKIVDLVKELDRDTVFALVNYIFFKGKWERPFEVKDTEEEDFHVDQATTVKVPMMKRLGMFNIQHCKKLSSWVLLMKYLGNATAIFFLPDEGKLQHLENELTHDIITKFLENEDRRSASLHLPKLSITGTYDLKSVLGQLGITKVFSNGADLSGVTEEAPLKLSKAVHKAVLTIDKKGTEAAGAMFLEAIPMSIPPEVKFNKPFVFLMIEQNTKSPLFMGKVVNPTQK
- procedure.details: Biochemical Assay (Z-AAT Elastase Activity Assay)
- experimental.context: purified Z-AAT pre-incubated with compound 1 hour, then hNE and elastase substrate V
pIC50: −log10 of the molar value.
Quick reference for pIC50 among some compounds

compound	pIC50
Cc1cc(-n2c3c(c4c(O)cccc42)C2(CC4(CC(C(=O)O)C4)C2)OCC3(C)C)ccc1F (single isomer, unassigned) [Compound 21]	< 4.52
CC1(C)CO[C@]2(CC[C@@H](C(=O)O)CC2)c2c1n(-c1ccc(F)cc1)c1cccc(O)c12	< 5.52
CC1(C)COC(C)(c2ccc(C(=O)O)cc2)c2c1n(-c1ccc(F)cc1)c1cccc(O)c21 (racemic) [Compound 96]	< 5.52
CC1(C)COC(C)(c2ccc(Cl)cc2C(=O)O)c2c1n(-c1ccc(F)cc1)c1cccc(O)c21 (stereo not drawn)	5.52 to 5.92
CC1(C)COC(C)(c2ccc(C(=O)O)cc2F)c2c1n(-c1ccc(F)cc1)c1cc(F)cc(O)c21 (stereo not drawn) [Compound 181]	5.52 to 5.92
CNC(=O)[C@]1(C)C[C@@]2(C1)OCC(C)(C)c1c2c2c(O)cccc2n1-c1ccc(F)cc1	< 4.52
CC1(C)COC2(CCN(CC(=O)O)C(=O)C2)c2c1n(-c1ccc(F)c(F)c1)c1cc(F)cc(O)c21 (stereo not drawn)	> 5.92
Cc1cc(-n2c3c(c4cc(O)ccc42)[C@]2(C[C@](C)(C(=O)O)C2)OCC3(C)C)ccc1F	< 5.52
CC1(C)COC(C)(c2cc(C(=O)O)cs2)c2c1n(-c1ccc(F)c(F)c1)c1cccc(O)c21 (stereo not drawn) [Compound 52]	5.52 to 5.92

====

- system.name: NL20 human bronchial epithelial cells expressing human Z-AAT (Homo sapiens, UniProt P01009, E366K)
- Sequence (P01009 25-418 E366K): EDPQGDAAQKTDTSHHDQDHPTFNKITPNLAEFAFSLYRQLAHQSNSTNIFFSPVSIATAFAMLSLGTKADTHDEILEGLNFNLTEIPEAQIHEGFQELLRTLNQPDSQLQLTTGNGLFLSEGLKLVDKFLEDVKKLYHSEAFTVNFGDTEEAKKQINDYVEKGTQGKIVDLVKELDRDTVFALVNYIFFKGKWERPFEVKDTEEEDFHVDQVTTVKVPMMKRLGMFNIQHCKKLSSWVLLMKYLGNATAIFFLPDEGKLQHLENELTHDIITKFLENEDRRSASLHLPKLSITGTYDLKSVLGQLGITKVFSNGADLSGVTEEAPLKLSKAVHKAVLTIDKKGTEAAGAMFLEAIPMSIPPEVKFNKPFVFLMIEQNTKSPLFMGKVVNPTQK
- procedure.details: AAT Function Assay (MSD Assay NL20-SI Cell Line)
- experimental.context: functionally active AAT in supernatant of NL20 cells expressing human Z-AAT, complex with hNE, MSD readout; read-out: NL20 Functional EC50
pEC50: −log10 of the molar value.
Quick reference for pEC50 among some molecules

molecule	pEC50
CC1(C)COC2(CCS(=N)(=O)CC2)c2c1n(-c1ccc(F)cc1)c1cccc(O)c21 (centres unmarked) [Compound 83]	< 5.52
CC1(C)CO[C@]2(CC[C@](O)(CC(=O)O)CC2)c2c1n(-c1ccc(F)cc1)c1cccc(O)c12	< 5.52
CC1(C)COC(C)(c2csc(C(=O)O)c2)c2c1n(-c1ccc(F)c(F)c1)c1cc(F)cc(O)c21 (racemic) [Compound 80]	> 5.92
CC1(C)CO[C@]2(C[C@@H](OCC(=O)O)C2)c2c1n(-c1ccc(F)cc1)c1cccc(O)c12	5.52 to 5.92
CO[C@]1(C(=O)O)CC[C@]2(CC1)OCC(C)(C)c1c2c2c(O)cccc2n1-c1ccc(F)cc1	< 5.52
Cc1cc(-n2c3c(c4c(O)cccc42)C2(CC4(CC(C(=O)O)C4)C2)OCC3(C)C)ccc1F (centres unmarked) [Compound 17]	5.52 to 5.92
CC1(C)CO[C@]2(CC[C@@](O)(CC(=O)O)CC2)c2c1n(-c1ccc(F)cc1)c1cccc(O)c12	< 5.52
Cc1cc(-n2c3c(c4c(O)cccc42)[C@]2(C[C@@](C(=O)O)(C(F)(F)F)C2)OCC3(C)C)ccc1F	> 5.92
CC1(C)CO[C@]2(C[C@@](CF)(C(=O)O)C2)c2c1n(-c1ccc(F)cc1)c1cccc(O)c12	> 5.92
CC1(C)COC(C)(c2ccc(C(=O)O)cc2F)c2c1n(-c1ccc(Cl)c(F)c1)c1cccc(O)c21 (centres unmarked)	> 5.92
CC1(C)C(=O)CC2(CC(C(=O)O)C2)c2c1n(-c1ccc(F)cc1)c1cccc(O)c21 (mixture of isomers)	< 5.52
CC1(C)CO[C@]2(C[C@H](C(=O)O)C2)c2c1n(-c1ccc(F)c(Cl)c1)c1cccc(O)c12	< 5.52
Cc1cc(-n2c3c(c4c(O)cccc42)C2(CC(n4nc(C)c(C(=O)O)c4C)C2)OCC3(C)C)ccc1F (centres unmarked)	< 5.52
CC1(C)COC(C)(c2ccc(C(=O)O)s2)c2c1n(-c1ccc(F)c(F)c1)c1cccc(O)c21 (centres unmarked) [Compound 32]	> 5.92

====

Quick reference for IC50 among some compounds
- system.name: purified Z-AAT protein from human plasma (Homo sapiens, UniProt P01009, E366K/V237A)
- Construct: Purified Z-AAT protein from human plasma; Vertex Cambridge Sample 4942)
- procedure.details: Biochemical Assay (Z-AAT Elastase Activity Assay)
- experimental.context: purified Z-AAT pre-incubated with compound 1 hour, then hNE and elastase substrate V
- Description: This assay measured the modulation of compounds 1-210 on Z-AAT SERPIN activity using purified Z-AAT protein and purified human neutrophil elastase (hNE). Normally, when active monomeric Z-AAT encounters a protease such as trypsin or elastase, it forms a 1:1 covalent “suicide” complex in which both the AAT and protease are irreversibly inactivated. However, compounds binding to Z-AAT can lead to a decrease in SERPIN activity. […]

compound	IC50
CC1(C)COC(C)(c2ccc(C(=O)O)s2)c2c1n(-c1ccc(F)c(F)c1)c1cccc(O)c21 (stereo not shown) [Compound 32]	1.2 to 3 µM
Cc1cc(-n2c3c(c4c(O)cccc42)[C@]2(CC[C@@H](C(=O)O)CC2)OCC3(C)C)ccc1F	> 30 µM
Cc1cc(-n2c3c(c4c(O)cccc42)[C@]2(C[C@@H](OCC(=O)O)C2)OCC3(C)C)ccc1F	> 30 µM
Cc1cc(-n2c3c(c4c(O)cccc42)C2(CC(n4nc(C)c(C(=O)O)c4C)C2)OCC3(C)C)ccc1F (stereo not shown)	> 3 µM
CC1(C)COC(C)(c2ccc(C(=O)O)cc2F)c2c1n(-c1ccc(F)cc1)c1cccc(O)c21 (racemic) [Compound 110]	1.2 to 3 µM
CC1(C)COC(C)(c2ccc(C(=O)O)cc2F)c2c1n(-c1ccc(Cl)c(F)c1)c1cccc(O)c21 (stereo not shown)	1.2 to 3 µM
CC1(C)COC2(CCC(C(=O)O)OC2)c2c1n(-c1ccc(F)c(F)c1)c1cc(F)cc(O)c21 (stereo not shown) [Compound 73]	1.2 to 3 µM

====

Quick reference for EC50 among some compounds
- system.name: NL20 human bronchial epithelial cells expressing human Z-AAT (Homo sapiens, UniProt P01009, E366K)
- procedure.details: AAT Function Assay (MSD Assay NL20-SI Cell Line)
- experimental.context: functionally active AAT in supernatant of NL20 cells expressing human Z-AAT, complex with hNE, MSD readout; read-out: NL20 Functional EC50

compound	EC50
CC1(C)CO[C@]2(C[C@@H](OCC(=O)O)C2)c2c1n(-c1ccc(F)c(F)c1)c1cccc(O)c12 [Compound 47]	1.2 to 3 µM
CC1(C)CO[C@]2(C[C@H](OCC(=O)O)C2)c2c1n(-c1ccc(F)c(F)c1)c1cc(F)cc(O)c12 [Compound 75]	> 3 µM
CC1(C)COC(C)(c2ccc(C(=O)O)s2)c2c1n(-c1ccc(F)cc1)c1cccc(O)c21 (racemic) [Compound 94]	< 1.2 µM
CC1(C)CO[C@]2(C[C@H](C(=O)O)C2)c2c1n(-c1ccc(F)cc1)c1cccc(O)c12 [Compound 111]	> 3 µM
CC1(C)COC2(CCS(=N)(=O)CC2)c2c1n(-c1ccc(F)cc1)c1cccc(O)c21 (racemic) [Compound 148]	> 3 µM
Cc1cc(-n2c3c(c4c(O)cccc42)[C@]2(C[C@@H](CC(=O)O)C2)OCC3(C)C)ccc1F [Compound 4]	1.2 to 3 µM
Cc1cc(-n2c3c(c4c(O)cccc42)[C@]2(C[C@](C)(C(=O)O)C2)OCC3)ccc1F [Compound 2]	> 3 µM
CC1(C)COC2(CCCC(C(=O)O)C2)c2c1n(-c1ccc(F)cc1)c1cccc(O)c21 (stereo not drawn) [Compound 129]	> 3 µM
CC1(C)COC2(CCN(c3nc(C(=O)O)co3)CC2)c2c1n(-c1ccc(F)cc1)c1cccc(O)c21 [Compound 86]	> 3 µM
CC1(C)COC2(CCC(C(F)(F)C(=O)O)C2)c2c1n(-c1ccc(F)cc1)c1cccc(O)c21 (stereo not drawn) [Compound 173]	> 3 µM
CC1(C)COC(C)(c2ccc(C(=O)O)c(F)c2)c2c1n(-c1ccc(F)c(F)c1)c1cc(F)cc(O)c21 (stereo not drawn) [Compound 65]	< 1.2 µM
CC1(C)COC(C)(c2cccc(C(=O)O)c2)c2c1n(-c1ccc(F)cc1)c1cccc(O)c21 (racemic) [Compound 92]	< 1.2 µM
CC1(C)COC(C)(c2ccc(C(=O)O)cc2)c2c1n(-c1ccc(F)cc1)c1cccc(O)c21 (racemic) [Compound 96]	> 3 µM
CC1(C(=O)O)CCC2(C1)OCC(C)(C)c1c2c2c(O)cccc2n1-c1ccc(F)cc1 (racemic) [Compound 132]	1.2 to 3 µM
CC1(C)COC(C)(c2csc(C(=O)O)c2)c2c1n(-c1ccc(F)cc1)c1cccc(O)c21 (stereo not drawn) [Compound 98]	< 1.2 µM
